Values from patent US8518875B2

biological target: GPCR GPR40 (Homo sapiens, UniProt O14842); construct: expressed in transfected cells; host or cells: HEK293; assay: In-vitro FLIPR assay with recombinant cells which express the GPCR GPR40; assay type: cell-based; details: intracellular Ca2+ in recombinant HEK293 cells expressing GPR40, 100% = 10 μM linoleic acid
Sequence (O14842 whole entry): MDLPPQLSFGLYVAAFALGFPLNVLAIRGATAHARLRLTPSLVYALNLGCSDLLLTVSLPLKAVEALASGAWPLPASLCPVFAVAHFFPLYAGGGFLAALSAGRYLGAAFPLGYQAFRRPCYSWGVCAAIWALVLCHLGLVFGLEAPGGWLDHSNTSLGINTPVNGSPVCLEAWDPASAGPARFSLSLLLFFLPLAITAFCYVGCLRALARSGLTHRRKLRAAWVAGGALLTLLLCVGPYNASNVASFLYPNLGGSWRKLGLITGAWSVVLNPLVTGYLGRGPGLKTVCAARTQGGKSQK
pEC50: −log10 of the molar value.
Recorded metric: pEC50

Consider the reported pEC50 for these compounds:
Smiles text: O=C(O)CCc1ccc(NC(=O)C(=O)Nc2ccc(Br)cc2Cl)cc1
pEC50: 6.22
//
Smiles text: O=C(O)CCc1ccc(NC(=O)C(=O)Nc2ccc(Cl)cc2Cl)cc1
pEC50: 6.15

(I) CC(C)c1ccc(NC(=O)C(=O)Nc2ccc(CCC(=O)O)cc2)c(C(F)(F)F)c1
(II) CC(C)c1ccc(NC(=O)C(=O)Nc2cccc(CCC(=O)O)c2)c(Br)c1
(III) O=C(O)CCc1cccc(NC(=O)C(=O)Nc2c(Cl)c(Cl)cc(Cl)c2Cl)c1
(IV) O=C(O)CCc1ccc(NC(=O)C(=O)Nc2cc(C(F)(F)F)ccc2Br)cc1
Exercise: Ascending by pEC50, please: list the compounds accordingly. List the labels, following the order given in the request.
Key: III, II, IV, I
